Reference source for all entries: patent US20150105252A1

tested on: blackgrass; assay: Test C preemergence; format: in vivo, Alopecurus myosuroides; conditions: preemergence, 62 g ai/ha; scale 0 to 100 (0 no effect, 100 complete control), 13 to 15 days
observation_type: Blackgrass plant response rating

Study these solved cases before continuing.
# compound, Blackgrass plant response rating
rows = [
    ("CCONC(=O)c1cc(OCC)n(Cc2ccnc(C(F)(F)F)c2)n1 [Compound 195]", 90),
    ("O=C(NCC(F)(F)F)c1cc(CCCl)n(Cc2ccnc(C(F)(F)F)c2)n1 [Compound 143]", 85),
    ("CCCc1cc(C(=O)NCC(F)(F)F)nn1Cc1ccnc(C(F)(F)F)c1 [Compound 105]", 90),
    ("CCc1cc(C(=O)NC(C)C)nn1Cc1ccnc(C(F)(F)F)c1 [Compound 139]", 90),
    ("CCc1cc(C(=O)NC2CC2)nn1Cc1ccnc(OCC(F)(F)F)c1 [Compound 200]", 80),
]

Give me Blackgrass plant response rating for each of these compounds, listed below.
1. CCNC(=O)c1cc(CCCl)n(Cc2ccnc(C(F)(F)F)c2)n1 [Compound 179]
2. CCOc1cc(C(=O)NC(C)C)nn1Cc1ccnc(C(F)(F)F)c1 [Compound 188]

1. 40
2. 90

---

Consider the following molecules; for each one, report its Blackgrass plant response rating.
tested on: blackgrass; experiment: Test C preemergence; type: in vivo, Alopecurus myosuroides; conditions: preemergence, 31 g ai/ha; visual rating, scale 0 to 100 (0 no effect, 100 complete control), 13 to 15 days
Answers are plain numbers.

Record excerpt, results attached:
# line_notation, observation_type, assay_value
records = [
    ("CCOc1cc(C(=O)NC(C)C)nn1Cc1ccnc(C(F)(F)F)c1", "Blackgrass plant response rating", 90),
    ("CCNC(=O)c1cc(CCCl)n(Cc2ccnc(C(F)(F)F)c2)n1", "Blackgrass plant response rating", 5),
    ("CCCNC(=O)c1cc(CCC)n(Cc2cc(C(F)(F)F)nn2C)n1", "Blackgrass plant response rating", 85),
]

// for each molecule in input: emit Blackgrass plant response rating
1. CCOc1cc(C(=O)NC2CC2)nn1Cc1ccnc(C(F)(F)F)c1
2. CCCNC(=O)c1cc(CC)n(Cc2ccnc(OC(F)F)c2)n1
3. Cc1cc(C(=O)NC(C)C)nn1Cc1ccnc(C(F)(F)F)c1

1. 90
2. 95
3. 0

---

Answer each item with its documented Blackgrass plant response rating.
test system: blackgrass; assay: Test C postemergence; assay type: in vivo, Alopecurus myosuroides; conditions: postemergence, 62 g ai/ha; scale 0 to 100
From the text: […]
Give bare numbers.

# line_notation, Blackgrass plant response rating
data = [
    ("CCCNC(=O)c1cc(CC)n(Cc2ccnc(OC(F)F)c2)n1", 5),
    ("CCc1cc(C(=O)NOC(C)C)nn1Cc1ccnc(C(F)(F)F)c1", 5),
    ("CCc1cc(C(=O)NC(C)C)nn1Cc1ccnc(C(F)(F)F)c1", 15),
    ("CCNC(=O)c1cc(CC)n(Cc2ccnc(C(F)(F)F)c2)n1", 15),
    ("CCCc1cc(C(=O)NCC)nn1Cc1cc(C(F)(F)F)nn1C", 5),
]

Each compound below has a reported value. Please supply its Blackgrass plant response rating.
1. CCc1cc(C(=O)NCC(F)(F)F)nn1Cc1cc(OC(F)F)nn1C
2. CCCc1cc(C(=O)NCC)nn1Cc1ccnc(C(F)(F)F)c1

1: 0; 2: 5

---

Hi there, I'd appreciate the recorded Plant response rating, Rice for every entry that follows.
System: rice
Assay: Test C flooded paddy test
Format: in vivo, Oryza sativa
Conditions: Flood, 250 g ai/ha; scale 0 to 100
From the text: At time of treatment, test pots were flooded to 3 cm above the soil surface, treated by application of test compounds directly to the paddy water, and then maintained at that water depth for the duration of the test. Treated plants and controls were maintained in a greenhouse for 13 to 15 days, after which time all species were compared to controls and visually evaluated. […] A dash (-) response means no test result.
Numbers only.

Look over these answered cases.
# line_notation, Plant response rating, Rice
records = [
    ("CCc1cc(C(=O)NCC(F)(F)F)nn1Cc1ccnc(OCC(F)(F)F)c1", 0),
    ("CNC(=O)c1cc(C)n(Cc2cccc(OC(F)(F)F)c2)n1", 0),
    ("CCCc1cc(C(=O)NCC(F)(F)F)nn1Cc1cccc(C(F)(F)F)c1", 15),
]

// below: Plant response rating, Rice requested for another compound
Given CCCc1cc(C(=O)NCC)nn1Cc1cccc(C(F)(F)F)c1 , state its recorded Plant response rating, Rice.
0

---

system: lambsquarters; assay: Test C preemergence; format: in vivo, Chenopodium album; conditions: preemergence, 31 g ai/ha; visual rating, scale 0 to 100 (0 no effect, 100 complete control), 13 to 15 days
observation_type: Lambsquarters plant response rating
Give bare numbers.

Go through the items and report each one's Lambsquarters plant response rating.
1. CCCc1cc(C(=O)NCC)nn1Cc1cc(C(F)(F)F)nn1C
2. CCONC(=O)c1cc(CC)n(Cc2cc(C(F)(F)F)no2)n1
3. CCCc1cc(C(=O)NCC)nn1Cc1ccnc(C(F)(F)F)c1
4. CCc1cc(C(=O)NOC(C)C)nn1Cc1ccnc(C(F)(F)F)c1

1. 98
2. 15
3. 100
4. 85

---

Would you mind telling me the reported Pigweed plant response rating of each entry?
test system: pigweed; test: Test A postemergence; assay type: in vivo, Amaranthus retroflexus; settings: Postemergence, 125 g ai/ha; 0 to 100 scale, 0 no effect, 100 complete control
Answers are plain numbers.

Example entries begin here.
# line_notation, target_system, Pigweed plant response rating
rows = [
    ("O=C(NCC(F)(F)F)c1cc(CCCl)n(Cc2ccnc(C(F)(F)F)c2)n1", "pigweed", 100),
    ("CCc1cc(C(=O)NN(C)C)nn1Cc1ccnc(C(F)(F)F)c1", "pigweed", 80),
    ("CCCNC(=O)c1cc(CCC)n(Cc2cc(C(F)(F)F)nn2C)n1", "pigweed", 100),
]

Report Pigweed plant response rating for CCc1cc(C(=O)NCC2CC2)nn1Cc1ccnc(C(F)(F)F)c1 please.
100

---

test system: kochia; assay: Test F preemergence; assay type: in vivo, Kochia scoparia; settings: preemergence; 8 g ai/ha; scale 0 to 100, 100 is complete control
Record form. Attribute: Plant response rating, Kochia. Fill in for each entry.

Known Plant response rating, Kochia results, listed for orientation:
# line_notation, target_system, observation_type, assay_value
data = [
    ("CCOc1cc(C(=O)NC(C)C)nn1Cc1ccnc(C(F)(F)F)c1", "kochia", "Plant response rating, Kochia", 0),
    ("CCc1cc(C(=O)NCC(F)(F)F)nn1Cc1ccnc(C(F)(F)F)c1", "kochia", "Plant response rating, Kochia", 40),
    ("CCOc1cc(C(=O)NCC(F)(F)F)nn1Cc1ccnc(C(F)(F)F)c1", "kochia", "Plant response rating, Kochia", 0),
]

Endpoint output: Plant response rating, Kochia of CCCc1cc(C(=O)NCC(F)(F)F)nn1Cc1ccnc(C(F)(F)F)c1 . Value?
0

---

test system: ryegrass, Italian; experiment: Test D postemergence; format: in vivo, Lolium multiflorum; conditions: Postemergence, 125 g ai/ha, scale 0 to 100
observation_type: Ryegrass, Italian plant response rating
One number for each entry.

Example entries and their recorded answers appear below.
# molecule, assay_value
records = [
    ("CCc1cc(C(=O)NCC(F)(F)F)nn1Cc1ccnc(C(F)(F)F)c1 [Compound 78]", 10),
    ("CCOc1cc(C(=O)NC(C)C)nn1Cc1ccnc(C(F)(F)F)c1 [Compound 188]", 25),
    ("CCOc1cc(C(=O)NC2CC2)nn1Cc1ccnc(C(F)(F)F)c1 [Compound 189]", 20),
]

Attention now turns to another entry.
Request the reported Ryegrass, Italian plant response rating associated with CCc1cc(C(=O)NC(C)C)nn1Cc1ccnc(C(F)(F)F)c1 [Compound 103]
5

---

Exercise: state measured Plant response rating, Wheat for each of the molecules provided.
test system: wheat; test: Test C postemergence; assay type: in vivo, Triticum aestivum; conditions: postemergence, 250 g ai/ha; scale 0 to 100 (0 no effect, 100 complete control)
Give bare numbers.

# line_notation, Plant response rating, Wheat
data = [
    ("CCCc1cc(C(=O)NCC(F)(F)F)nn1Cc1cc(C(F)(F)F)nn1C", 15),
    ("CCc1cc(C(=O)NC(C)C)nn1Cc1ccnc(C(F)(F)F)c1", 15),
    ("Cc1cc(C(=O)NC(C)C)nn1Cc1ccnc(C(F)(F)F)c1", 5),
]

Please report Plant response rating, Wheat for every entry that follows.
1. CCc1cc(C(=O)NCC2CC2)nn1Cc1ccnc(C(F)(F)F)c1
2. CCc1cc(C(=O)NC2CC2)nn1Cc1ccnc(OCC(F)(F)F)c1
3. CCCNC(=O)c1cc(CCC)n(Cc2cc(C(F)(F)F)nn2C)n1
4. CCCc1cc(C(=O)NCC)nn1Cc1ccnc(C(F)(F)F)c1
5. CCc1cc(C(=O)NC2CC2)nn1Cc1ccnc(OC(F)F)c1

1. 5
2. 10
3. 10
4. 20
5. 20
